// reported CC50 per item
- Protocol details: in vitro
- Measurement setup: hamster

As a guide, the following entries are already answered.
# Compound, CC50
rows = [
    ("CCOC(=O)/C(=N\\Nc1ccc(Br)cc1)C(=O)CSC#N", "> 100 µM"),
    ("O=C1C(Cl)=C(Sc2ccccc2Br)C(=O)c2ccccc21", "55 µM"),
    ("N#CC(C(=O)Nc1cccc(C(F)(F)F)c1)C(=S)Nc1ccccc1Cl (stereo not drawn)", "70 µM"),
    ("O=S(=O)(NNc1ncnc2sccc12)c1ccc(Cl)cc1", "> 100 µM"),
    ("O=C(Sc1cccs1)c1cncc(C#Cc2ccccc2)c1", "> 100 µM"),
]

Turning now to a further compound:
Request: Recorded CC50 of O=S1(=O)C=C(CSc2cccs2)c2cc(Cl)ccc21 , please.
Response: > 100 µM

###

- Test system: FMDV A24 Cruzeiro
- Protocol details: microbe, parasite or virus in culture
- Type: cell-based, Foot-and-Mouth Disease Virus
- Measurement setup: Foot-and-mouth disease virus, BHK-21, 24 h, read-out: EC50 (virus production in FMDV-infected cells)
Recorded endpoint: pEC50
Please keep in mind that pEC50 is minus log10 of the molar concentration; only the number is needed.

Request: Given O=S(=O)(NNc1ncnc2sccc12)c1ccc(Cl)cc1 , state its recorded pEC50.
Response: 4.92

###

- Test target: FMDV 3Dpol (Foot-and-mouth disease virus)
- Sequence (P03311 1858-2327 limits assumed): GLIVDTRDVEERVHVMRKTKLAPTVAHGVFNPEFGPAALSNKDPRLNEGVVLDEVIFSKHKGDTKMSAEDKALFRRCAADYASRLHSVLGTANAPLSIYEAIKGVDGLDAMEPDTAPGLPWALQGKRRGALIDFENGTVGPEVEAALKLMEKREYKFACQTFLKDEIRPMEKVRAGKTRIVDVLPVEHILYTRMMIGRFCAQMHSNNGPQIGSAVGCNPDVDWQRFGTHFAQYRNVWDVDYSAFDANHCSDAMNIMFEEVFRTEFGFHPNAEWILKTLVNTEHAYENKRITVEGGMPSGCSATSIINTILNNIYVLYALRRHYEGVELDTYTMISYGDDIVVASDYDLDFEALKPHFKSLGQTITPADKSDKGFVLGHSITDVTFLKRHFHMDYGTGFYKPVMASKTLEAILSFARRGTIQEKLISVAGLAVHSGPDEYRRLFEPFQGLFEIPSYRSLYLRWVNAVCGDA
- Protocol details: biochemical
- Measurement setup: IC50 of 3Dpol inhibition (gel-based)
Rule: IC50 below 10 µM gives t. Equal to or above 10 µM gives f.

Take a look at these entries with their results.
# Molecule, Test target, Class assignment
data = [
    ("O=C1C(Cl)=C(Sc2ccccc2Br)C(=O)c2ccccc21", "FMDV 3Dpol (Foot-and-mouth disease virus)", "t"),
    ("O=[N+]([O-])c1ccc(Sc2ccc(Cl)cc2Cl)c2nonc12", "FMDV 3Dpol (Foot-and-mouth disease virus)", "f"),
    ("O=C(Sc1cccs1)c1cncc(C#Cc2ccccc2)c1", "FMDV 3Dpol (Foot-and-mouth disease virus)", "t"),
]

As a next step, examine the compound that follows.
Request: Strictly below 10 µM: is that where IC50 of O=S(=O)(NNc1ncnc2sccc12)c1ccc(Cl)cc1 sits?
Response: f
